# Tested on: HL60-ABCB1 cells
# experimental details: XTT proliferation / drug combination assay
# condition summary: read-out: IC50 (IC50-shift analysis)
measure: pIC50
Give bare numbers, as −log10 of the molar value.

Identify pIC50 associated with the compound COc1cccc2c1C(=O)c1c(O)c3c(c(O)c1C2=O)C[C@@](O)(C(C)=O)C[C@@H]3O[C@H]1C[C@H](N)[C@H](O)[C@H](C)O1 [daunorubicin]
5.67

----------
# assayed system: CYP2C9 (Homo sapiens, UniProt P11712)
# Construct: purchased Thermo Fisher Scientific
# Sequence (P11712 whole entry): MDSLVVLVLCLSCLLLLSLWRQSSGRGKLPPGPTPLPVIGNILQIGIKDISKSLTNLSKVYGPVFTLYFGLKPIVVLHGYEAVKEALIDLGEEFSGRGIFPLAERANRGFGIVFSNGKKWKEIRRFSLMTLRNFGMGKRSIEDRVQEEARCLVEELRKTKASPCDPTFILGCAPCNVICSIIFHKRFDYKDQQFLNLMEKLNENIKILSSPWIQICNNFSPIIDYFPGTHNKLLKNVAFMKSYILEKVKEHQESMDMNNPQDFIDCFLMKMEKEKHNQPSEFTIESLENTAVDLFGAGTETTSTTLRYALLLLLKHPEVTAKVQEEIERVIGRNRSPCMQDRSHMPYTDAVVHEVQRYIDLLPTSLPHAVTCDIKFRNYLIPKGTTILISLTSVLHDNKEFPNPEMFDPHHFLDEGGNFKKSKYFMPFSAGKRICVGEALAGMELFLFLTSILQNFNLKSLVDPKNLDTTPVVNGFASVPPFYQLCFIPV
# experimental details: Vivid CYP450 Screening Kit, recombinant CYP2C9
# Type: in vitro ADME
# condition summary: recombinant enzyme; read-out: CYP2C9 inhibition IC50
# Description: CYP inhibitory assay was performed using Vivid CYP450 screening kit as described previously. The kits consist of microsomal fraction containing human CYP isoforms, human CYP reductase and in several cases cytochrome b5. […] The reaction was started with the mixture of NADP^+ and Vivid substrate and the fluorescence of samples was measured in 1 min interval for 60 min using an Infinite M200 Pro microplate reader (Tecan, Männedorf, Switzerland). […]
measure: IC50 (nM)
Give bare numbers, in nM.

Identify IC50 associated with the compound `CN1CCC(COc2cnc(-c3cccc(Cn4nc(-c5cccc(C#N)c5)ccc4=O)c3)nc2)CC1`
1700

----------
# assayed system: ABCB1 (Homo sapiens, UniProt P08183)
# Sequence (P08183 whole entry): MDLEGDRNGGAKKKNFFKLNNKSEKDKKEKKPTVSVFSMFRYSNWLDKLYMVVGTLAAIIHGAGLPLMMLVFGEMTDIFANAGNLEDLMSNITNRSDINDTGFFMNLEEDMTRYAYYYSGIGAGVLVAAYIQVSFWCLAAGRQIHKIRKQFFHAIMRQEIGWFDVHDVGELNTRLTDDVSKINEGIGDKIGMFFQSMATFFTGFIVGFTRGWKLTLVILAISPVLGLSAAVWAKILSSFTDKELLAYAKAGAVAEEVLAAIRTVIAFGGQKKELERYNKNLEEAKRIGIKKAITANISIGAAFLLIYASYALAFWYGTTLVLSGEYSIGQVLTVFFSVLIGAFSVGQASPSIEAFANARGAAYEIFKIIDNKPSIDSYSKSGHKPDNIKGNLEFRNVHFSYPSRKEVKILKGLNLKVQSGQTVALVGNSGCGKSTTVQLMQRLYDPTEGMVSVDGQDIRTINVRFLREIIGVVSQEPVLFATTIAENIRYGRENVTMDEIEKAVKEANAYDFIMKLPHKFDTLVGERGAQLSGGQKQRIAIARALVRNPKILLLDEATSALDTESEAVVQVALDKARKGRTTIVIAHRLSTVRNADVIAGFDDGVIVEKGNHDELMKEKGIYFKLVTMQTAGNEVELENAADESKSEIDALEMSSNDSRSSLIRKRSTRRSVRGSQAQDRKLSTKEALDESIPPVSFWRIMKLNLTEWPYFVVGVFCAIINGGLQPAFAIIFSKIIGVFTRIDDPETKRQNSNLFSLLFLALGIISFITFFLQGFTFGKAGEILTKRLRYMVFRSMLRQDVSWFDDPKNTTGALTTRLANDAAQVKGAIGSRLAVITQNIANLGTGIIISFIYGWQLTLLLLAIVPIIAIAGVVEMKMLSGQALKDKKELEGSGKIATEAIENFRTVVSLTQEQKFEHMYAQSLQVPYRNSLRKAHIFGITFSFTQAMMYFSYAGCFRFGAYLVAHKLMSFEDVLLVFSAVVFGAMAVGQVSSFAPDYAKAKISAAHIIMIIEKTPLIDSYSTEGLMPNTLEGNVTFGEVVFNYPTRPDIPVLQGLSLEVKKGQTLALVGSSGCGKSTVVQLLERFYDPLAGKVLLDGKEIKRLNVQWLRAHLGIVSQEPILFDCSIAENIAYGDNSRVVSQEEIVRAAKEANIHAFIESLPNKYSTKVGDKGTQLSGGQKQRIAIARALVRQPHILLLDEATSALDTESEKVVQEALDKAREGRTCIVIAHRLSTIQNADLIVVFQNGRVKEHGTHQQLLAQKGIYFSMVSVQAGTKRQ
# experimental details: Inhibitory accumulation assay in MDCKII-ABCB1 cells
# Assay type: cell-based
# condition summary: 2 µM daunorubicin, 1 h, read-out: IC50, relative daunorubicin accumulation
measure: pIC50
Numbers only, as −log10 of the molar value.

Identify pIC50 associated with the compound `CN1CCC(COc2cnc(-c3cccc(Cn4nc(-c5cccc(C#N)c5)ccc4=O)c3)nc2)CC1`
5.89

----------
# assayed system: ABCC1 (Homo sapiens)
# Sequence (P33527 whole entry): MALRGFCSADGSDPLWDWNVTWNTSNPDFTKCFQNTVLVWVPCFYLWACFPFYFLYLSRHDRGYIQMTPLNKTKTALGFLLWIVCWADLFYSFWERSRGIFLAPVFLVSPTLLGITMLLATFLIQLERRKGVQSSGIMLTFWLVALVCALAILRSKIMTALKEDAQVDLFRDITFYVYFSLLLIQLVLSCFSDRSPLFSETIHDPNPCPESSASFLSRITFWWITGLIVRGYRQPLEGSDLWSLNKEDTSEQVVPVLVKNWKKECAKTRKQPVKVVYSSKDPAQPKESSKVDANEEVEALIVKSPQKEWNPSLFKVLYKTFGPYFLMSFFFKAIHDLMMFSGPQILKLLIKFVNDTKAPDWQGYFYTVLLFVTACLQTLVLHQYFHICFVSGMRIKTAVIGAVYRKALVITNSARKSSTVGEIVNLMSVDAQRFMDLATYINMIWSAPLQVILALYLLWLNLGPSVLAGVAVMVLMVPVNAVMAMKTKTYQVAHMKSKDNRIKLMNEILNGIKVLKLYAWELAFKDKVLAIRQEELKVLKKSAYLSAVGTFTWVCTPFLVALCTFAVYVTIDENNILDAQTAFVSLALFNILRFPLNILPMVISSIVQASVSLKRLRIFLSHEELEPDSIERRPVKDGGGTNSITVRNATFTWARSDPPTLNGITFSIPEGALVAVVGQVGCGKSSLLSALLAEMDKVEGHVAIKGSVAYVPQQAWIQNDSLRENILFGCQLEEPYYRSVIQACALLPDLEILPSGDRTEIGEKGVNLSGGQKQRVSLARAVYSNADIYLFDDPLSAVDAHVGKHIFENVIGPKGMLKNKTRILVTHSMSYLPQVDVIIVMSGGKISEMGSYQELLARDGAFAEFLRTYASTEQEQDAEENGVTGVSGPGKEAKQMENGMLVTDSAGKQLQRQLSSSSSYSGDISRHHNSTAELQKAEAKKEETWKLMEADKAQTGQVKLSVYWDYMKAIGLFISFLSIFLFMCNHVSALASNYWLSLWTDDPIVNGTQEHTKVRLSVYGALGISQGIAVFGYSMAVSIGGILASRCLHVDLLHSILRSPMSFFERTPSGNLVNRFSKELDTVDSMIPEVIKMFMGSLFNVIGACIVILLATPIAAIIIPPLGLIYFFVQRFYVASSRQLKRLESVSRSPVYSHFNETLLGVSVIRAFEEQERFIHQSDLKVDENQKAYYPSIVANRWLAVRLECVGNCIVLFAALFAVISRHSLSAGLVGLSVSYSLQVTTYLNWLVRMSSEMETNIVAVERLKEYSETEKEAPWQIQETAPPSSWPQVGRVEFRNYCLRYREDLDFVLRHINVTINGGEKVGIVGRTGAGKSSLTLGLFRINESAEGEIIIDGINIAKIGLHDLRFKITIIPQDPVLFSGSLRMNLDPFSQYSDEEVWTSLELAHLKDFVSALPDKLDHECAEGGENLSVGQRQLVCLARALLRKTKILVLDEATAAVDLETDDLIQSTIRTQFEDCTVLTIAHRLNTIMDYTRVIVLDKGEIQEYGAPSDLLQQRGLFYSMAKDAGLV
# experimental details: Inhibitory accumulation assay in MDCKII-ABCC1 cells
# Assay type: cell-based
# condition summary: 2 µM calcein AM, read-out: IC50, relative calceinAM accumulation
measure: pIC50
Give bare numbers, as −log10 of the molar value.

Param request: pIC50 | system ABCC1 (Homo sapiens) | item `CN1CCC(COc2cnc(-c3cccc(Cn4nc(-c5cccc(C#N)c5)ccc4=O)c3)nc2)CC1`
4.61

----------
# experimental details: XTT proliferation / drug combination assay
# condition summary: human
measure: IC50 at 48 h
Please append the unit to your numeric answer.

Identify IC50 at 48 h associated with the molecule `CN1CCC(COc2cnc(-c3cccc(Cn4nc(-c5cccc(C#N)c5)ccc4=O)c3)nc2)CC1`
19.4 µM

----------
# experimental details: XTT proliferation / drug combination assay
# condition summary: human
measure: IC50 at 48 h (µM)
One number for each entry, in µM.

Identify IC50 at 48 h associated with the compound `CN1CCC(COc2cnc(-c3cccc(Cn4nc(-c5cccc(C#N)c5)ccc4=O)c3)nc2)CC1`
19.6

----------
# assayed system: CYP2B6 (Homo sapiens)
# Sequence (P20813 whole entry): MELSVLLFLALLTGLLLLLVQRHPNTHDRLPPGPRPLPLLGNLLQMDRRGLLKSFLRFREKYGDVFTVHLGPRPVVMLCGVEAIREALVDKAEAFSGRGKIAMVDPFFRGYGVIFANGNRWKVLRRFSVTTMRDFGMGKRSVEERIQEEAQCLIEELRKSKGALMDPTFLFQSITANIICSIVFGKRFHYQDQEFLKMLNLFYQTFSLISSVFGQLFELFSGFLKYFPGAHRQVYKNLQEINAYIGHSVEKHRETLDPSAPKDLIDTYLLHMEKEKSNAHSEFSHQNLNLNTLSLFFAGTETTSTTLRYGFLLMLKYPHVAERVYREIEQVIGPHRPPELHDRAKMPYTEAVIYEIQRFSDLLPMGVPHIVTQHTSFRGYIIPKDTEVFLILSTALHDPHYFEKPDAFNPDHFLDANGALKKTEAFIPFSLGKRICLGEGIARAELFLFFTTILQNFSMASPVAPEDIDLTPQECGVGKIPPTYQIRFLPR
# experimental details: Vivid CYP450 Screening Kit, recombinant CYP2B6
# condition summary: recombinant enzyme; read-out: CYP2B6 inhibition IC50
measure: IC50

Identify IC50 associated with the compound CN1CCC(COc2cnc(-c3cccc(Cn4nc(-c5cccc(C#N)c5)ccc4=O)c3)nc2)CC1 [tepotinib, Tepotinib]
> 50 µM

----------
# System: MDCKII-parent cells
# experimental details: MTT proliferation / drug combination assay
# Type: cell-based, canine
# condition summary: Canis lupus familiaris, read-out: IC50 (IC50-shift analysis)
measure: pIC50
Answers are plain numbers, as −log10 of the molar value.

Identify pIC50 associated with the compound `COc1cccc2c1C(=O)c1c(O)c3c(c(O)c1C2=O)C[C@@](O)(C(C)=O)C[C@@H]3O[C@H]1C[C@H](N)[C@H](O)[C@H](C)O1`
6.02
